Assay: AUC in Sprague-Dawley rat at 5 mg/kg, po
Format: ADME, organism-based
Design: dose 5 mg/kg, route oral
Details: plasma

{"columns": ["TEST SMILES", "READOUT UNITS", "AUC"],
 "data": [
  ["O=C(NS(=O)(=O)c1ccc(NCCSc2ccccc2)c([N+](=O)[O-])c1)c1ccc(N2CCN(Cc3ccccc3-c3ccc(Cl)cc3)CC2)cc1", "µM·h", 10.4],
  ["CC1(C)CCC(c2ccc(Cl)cc2)=C(CN2CCN(c3ccc(C(=O)NS(=O)(=O)c4ccc(N[C@H](CCN5CCOCC5)CSc5ccccc5)c(S(=O)(=O)C(F)(F)F)c4)cc3)CC2)C1", "µM·h", 6.26],
  ["CN(C)CC[C@H](CSc1ccccc1)Nc1ccc(S(=O)(=O)NC(=O)c2ccc(N3CCN(Cc4ccccc4-c4ccc(Cl)cc4)CC3)cc2)cc1S(=O)(=O)C(F)(F)F", "µM·h", 0.83],
  ["CN(C)CC[C@H](CSc1ccccc1)Nc1ccc(S(=O)(=O)NC(=O)c2ccc(N3CCN(Cc4ccccc4-c4ccc(Cl)cc4)CC3)cc2)cc1[N+](=O)[O-]", "µM·h", 0.28]
]}
